target: human TLR9 (Homo sapiens); construct: host or cells: HEK-Blue cells (HEK293-derived reporter line); assay: TLR9 inhibition reporter assay (HEK-Blue cells, secreted embryonic alkaline phosphatase reporter); assay type: cell-based; conditions: HEK-Blue cells overexpressing human TLR9, stimulated with ODN2006 5 nM, 22 hour incubation, reporter readout
Hi! Could you tag entries with IC50 below 80 nM as criterion met, and those at or above as criterion not met? Much appreciated.

Report whether reported IC50 is lower than 80 nM (strictly) for CC(C)N1CCC(N2CCC(c3cc4c(cc3F)nc(-c3ccc(S(C)(=O)=O)cc3)n4C)CC2)CC1
criterion met

Say whether its IC50 is strictly beneath 80 nM. Entry: CC(C)N1C2CCC1CC(N1CCC(c3ccc4nc(-c5ccc(S(C)(=O)=O)cc5)n(C)c4c3F)CC1)C2 (single isomer, unassigned) [Example 104]
criterion not met

# TODO verify IC50 < 80 nM strictly for this molecule: CC(C)N1C2CCC1CC(N1CCC(c3cc4nc(-c5ccc(S(C)(=O)=O)cc5)n(C)c4cc3F)CC1)C2 (single isomer, unassigned) [Example 100]
criterion met

For Cc1cc(C2CCN(C3CCN(CC(C)C)CC3)CC2)cc2[nH]c(-c3ccc(S(C)(=O)=O)c(F)c3)nc12 , is the recorded IC50 below the cut-off of 80 nM?
criterion met

Dear reviewer, please state whether Cc1cc(C2CCN(C3CCN(CC(C)C)CC3)CC2)cc2c1nc(-c1ccc(S(C)(=O)=O)cc1)n2C has IC50 strictly beneath 80 nM.
criterion not met

Bench note: check whether Cc1cc(-c2ccc(CN3C[C@H]4CN(C)C[C@H]4C3)cc2)cc2c1nc(-c1ccc(S(C)(=O)=O)cc1)n2C shows IC50 below 80 nM
criterion not met

====

biological target: human TLR8 (Homo sapiens); test: TLR8 inhibition reporter assay (HEK-Blue cells, secreted embryonic alkaline phosphatase reporter); conditions: HEK-Blue cells overexpressing human TLR8, stimulated with R848 15.9 μM; read-out: TLR 8 IC50
Sequence (Q9NR97 27-1041): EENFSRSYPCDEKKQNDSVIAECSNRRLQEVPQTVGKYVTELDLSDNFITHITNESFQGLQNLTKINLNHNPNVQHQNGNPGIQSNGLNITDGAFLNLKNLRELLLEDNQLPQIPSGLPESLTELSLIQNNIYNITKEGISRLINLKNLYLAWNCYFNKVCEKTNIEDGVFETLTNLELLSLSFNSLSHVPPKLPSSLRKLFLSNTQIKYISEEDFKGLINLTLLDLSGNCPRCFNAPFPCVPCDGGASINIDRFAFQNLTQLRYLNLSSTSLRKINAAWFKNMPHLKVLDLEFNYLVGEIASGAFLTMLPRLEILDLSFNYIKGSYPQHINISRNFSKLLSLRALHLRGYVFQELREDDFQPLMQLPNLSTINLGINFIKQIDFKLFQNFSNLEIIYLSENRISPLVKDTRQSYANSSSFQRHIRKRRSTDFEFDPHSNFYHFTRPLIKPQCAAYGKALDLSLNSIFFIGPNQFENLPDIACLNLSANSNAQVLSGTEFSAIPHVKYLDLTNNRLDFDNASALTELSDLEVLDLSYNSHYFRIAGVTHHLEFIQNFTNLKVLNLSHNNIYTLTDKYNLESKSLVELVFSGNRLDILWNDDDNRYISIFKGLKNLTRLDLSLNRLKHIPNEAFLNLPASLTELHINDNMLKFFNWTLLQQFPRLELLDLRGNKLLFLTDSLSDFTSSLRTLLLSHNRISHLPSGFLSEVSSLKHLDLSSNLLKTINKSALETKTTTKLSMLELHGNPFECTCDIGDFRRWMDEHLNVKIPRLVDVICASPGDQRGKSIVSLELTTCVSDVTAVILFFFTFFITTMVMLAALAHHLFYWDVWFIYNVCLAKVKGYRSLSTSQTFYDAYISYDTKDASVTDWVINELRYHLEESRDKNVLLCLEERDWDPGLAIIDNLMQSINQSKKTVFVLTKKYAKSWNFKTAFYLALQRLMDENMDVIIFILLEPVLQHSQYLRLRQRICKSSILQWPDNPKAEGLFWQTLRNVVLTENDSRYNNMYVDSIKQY
Record form. Attribute: IC50. Fill in for each entry.

Item under review: COc1ccc(-c2nc3ccc(C4CCN(C5CCN(C6CC6)CC5)CC4)cc3n2C(C)C)cc1OC . Reported IC50?
> 50 µM

// lookup IC50 for Cn1c(-c2ccc(S(C)(=O)=O)cc2)nc2cc(F)c(C3CCN(C4CC5CCC(C4)N5CC4CC4)CC3)cc21 (stereo not drawn) [Example 231]
> 50 µM

Which value of IC50 has been reported for Cn1c(-c2ccc(S(C)(=O)=O)cc2)nc2cc(C3CCN(C4CC5CCC(C4)N5CC4CC4)CC3)c(F)cc21 (single isomer, unassigned) [Example 249] in the records?
> 50 µM

====

Give measured pIC50 for each item. Keep answers brief.
Target: human TLR9 (Homo sapiens)
Construct: host or cells: HEK-Blue cells (HEK293-derived reporter line)
Sequence (Q9NR96 26-1032): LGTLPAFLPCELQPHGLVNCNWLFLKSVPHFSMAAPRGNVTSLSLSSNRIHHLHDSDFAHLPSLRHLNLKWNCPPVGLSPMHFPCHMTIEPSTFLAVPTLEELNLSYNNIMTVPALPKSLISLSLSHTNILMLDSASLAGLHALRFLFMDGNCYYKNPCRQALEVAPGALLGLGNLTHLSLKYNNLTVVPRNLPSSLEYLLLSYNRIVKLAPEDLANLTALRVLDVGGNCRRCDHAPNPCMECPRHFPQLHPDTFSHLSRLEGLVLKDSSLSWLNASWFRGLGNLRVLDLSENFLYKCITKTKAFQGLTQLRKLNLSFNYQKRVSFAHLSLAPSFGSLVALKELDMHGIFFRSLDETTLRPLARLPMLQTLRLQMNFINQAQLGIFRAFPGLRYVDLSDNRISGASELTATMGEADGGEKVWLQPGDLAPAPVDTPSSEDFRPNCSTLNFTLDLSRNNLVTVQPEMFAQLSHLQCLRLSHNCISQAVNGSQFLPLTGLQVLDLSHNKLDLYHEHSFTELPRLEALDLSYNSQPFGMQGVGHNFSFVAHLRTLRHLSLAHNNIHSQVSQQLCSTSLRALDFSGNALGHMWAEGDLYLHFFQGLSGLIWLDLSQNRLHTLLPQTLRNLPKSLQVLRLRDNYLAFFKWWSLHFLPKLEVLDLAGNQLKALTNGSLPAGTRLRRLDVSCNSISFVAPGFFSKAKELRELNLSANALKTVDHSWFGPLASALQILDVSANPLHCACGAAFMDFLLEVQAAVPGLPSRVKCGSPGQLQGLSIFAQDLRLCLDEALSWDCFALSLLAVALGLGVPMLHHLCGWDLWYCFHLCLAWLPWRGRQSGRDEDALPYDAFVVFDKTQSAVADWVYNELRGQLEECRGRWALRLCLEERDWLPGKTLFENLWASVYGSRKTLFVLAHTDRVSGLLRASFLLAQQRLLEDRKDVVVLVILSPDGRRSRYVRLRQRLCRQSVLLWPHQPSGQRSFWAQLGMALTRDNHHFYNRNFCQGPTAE
Test: TLR9 inhibition reporter assay (HEK-Blue cells, secreted embryonic alkaline phosphatase reporter)
Format: cell-based
Conditions: HEK-Blue cells overexpressing human TLR9, stimulated with ODN2006 5 nM, 22 hour incubation, reporter readout
As a rule, pIC50 stands for the negative log10 of the concentration, concentration in M.

Sample CC(C)N1C2CCC1CC(N1CCC(c3cc(F)c4nc(-c5ccc(S(C)(=O)=O)cc5)n(C)c4c3)CC1)C2 (single isomer, unassigned) [Example 106] — what was its pIC50?
6.41

Please look up its pIC50: Cn1c(-c2ccc(S(C)(=O)=O)cc2)nc2c(F)cc(C3CCN(C4CCCN(C5COC5)CC4)CC3)cc21 (single isomer, unassigned) [Example 109]
7.05

Please look up its pIC50: Cc1cc(-c2ccc(CN3CCC(N4CCCC4)CC3)cc2)cc2c1nc(-c1ccc(S(C)(=O)=O)cc1)n2C1CC1 [Example 372]
7.27

Entry Cc1cc(-c2ccc(CN3CCC(N4CCCC4)CC3)c(F)c2)cc2c1nc(-c1ccc(S(C)(=O)=O)cc1)n2C [Example 387] : reported pIC50 = ?
7.25

Quick check: pIC50 of Cc1cc(-c2ccc(C3CCN(C4CCN(C5CC5)CC4)CC3)cc2)cc2c1nc(-c1ccc(S(C)(=O)=O)cc1)n2C [Example 401] ?
7.00

Would you kindly share the measured pIC50 for Cc1cc(-c2ccc(CN3CCN(C(C)C)CC3)cc2)cc2c1nc(-c1ccc(S(C)(=O)=O)cc1)n2C [Example 413] ?
5.72

Item COc1ccc(-c2nc3ccc(C4CCN(C5CCN(C6CC6)CC5)CC4)cc3n2C(C)C)cc1OC [Example 31] has what recorded pIC50?
6.12

What does the data say about its pIC50? Entry: COc1ccc(-c2nc3ccc(C4CCN(C5CCN(C6CC6)CC5)CC4)cc3[nH]2)cc1OC [Example 29]
6.96

Which pIC50 reading was recorded for the molecule COc1ccc(-c2nc3cc(C4CCN(C5CCN(CC(C)C)CC5)CC4)ccc3n2C)cc1OC [Example 34] ?
6.77

Please look up its pIC50: CC(C)N1C2CCC1CC(N1CCC(c3ccc4c(nc(-c5ccc(S(C)(=O)=O)cc5)n4C)c3F)CC1)C2 (single isomer, unassigned) [Example 89]
6.80

====

Biological target: human TLR7 (Homo sapiens)
Sequence (Q9NYK1 27-1049): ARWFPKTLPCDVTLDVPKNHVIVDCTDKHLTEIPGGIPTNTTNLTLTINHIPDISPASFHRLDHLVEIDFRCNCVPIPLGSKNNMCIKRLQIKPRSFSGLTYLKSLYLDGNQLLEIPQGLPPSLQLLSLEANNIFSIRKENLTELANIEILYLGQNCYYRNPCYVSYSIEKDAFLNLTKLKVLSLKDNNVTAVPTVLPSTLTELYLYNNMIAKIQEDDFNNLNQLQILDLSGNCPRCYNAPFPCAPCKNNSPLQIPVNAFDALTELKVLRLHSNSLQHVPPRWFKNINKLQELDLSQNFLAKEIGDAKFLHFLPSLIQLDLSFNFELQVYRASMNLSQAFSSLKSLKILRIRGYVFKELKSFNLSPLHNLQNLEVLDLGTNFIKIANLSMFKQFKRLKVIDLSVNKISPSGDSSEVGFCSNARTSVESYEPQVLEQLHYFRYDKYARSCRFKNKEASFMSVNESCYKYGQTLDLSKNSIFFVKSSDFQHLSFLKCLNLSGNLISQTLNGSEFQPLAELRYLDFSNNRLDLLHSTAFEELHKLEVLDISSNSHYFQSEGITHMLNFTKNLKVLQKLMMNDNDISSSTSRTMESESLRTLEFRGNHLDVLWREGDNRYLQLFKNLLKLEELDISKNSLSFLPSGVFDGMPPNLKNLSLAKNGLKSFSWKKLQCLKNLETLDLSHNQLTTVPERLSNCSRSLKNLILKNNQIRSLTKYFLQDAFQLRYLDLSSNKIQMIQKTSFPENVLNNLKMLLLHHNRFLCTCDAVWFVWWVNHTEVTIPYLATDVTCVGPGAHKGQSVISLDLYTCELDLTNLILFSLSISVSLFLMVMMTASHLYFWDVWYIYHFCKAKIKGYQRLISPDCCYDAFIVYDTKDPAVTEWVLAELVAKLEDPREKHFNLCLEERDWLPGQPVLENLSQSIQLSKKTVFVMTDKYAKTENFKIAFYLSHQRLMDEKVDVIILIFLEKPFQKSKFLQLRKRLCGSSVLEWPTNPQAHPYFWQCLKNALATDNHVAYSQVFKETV
Assay: TLR7 inhibition reporter assay (HEK-Blue cells, secreted embryonic alkaline phosphatase reporter)
Settings: HEK-Blue cells overexpressing human TLR7, stimulated with gardiquimod 7.5 μM; read-out: TLR 7 IC50
pIC50: −log10 of the molar value.
Exercise: state measured pIC50 for each of the molecules provided.

Report pIC50 for CS(=O)(=O)c1ccc(-c2nc3ccc(C4CCN(C5CCN(C6CCOCC6)CC5)CC4)c(F)c3[nH]2)cc1 please.
< 4.30

Data request, read-out pIC50, for CC(C)CN1C2CCC1CC(N1CCC(c3ccc4nc(-c5ccc(S(C)(=O)=O)cc5)n(C)c4c3F)CC1)C2 (single isomer, unassigned) [Example 267]
< 4.30

Param item = CC(C)CN1CCC(N2CCC(c3ccc4nc(-c5ccc(S(C)(=O)=O)cc5)n(C)c4c3F)CC2)CC1 ; retrieve measured pIC50.
< 4.30

Every entry's value here was drawn from patent US12492188B2.
